Tested on: HCT-15 colon
Experiment: NCI-60 one-dose screen, 48 h
Conditions: 10 µM unless noted
Protocol: Growth inhibition of the HCT-15 human tumor cell line is measured as a screen for anti-cancer activity. Cells are grown in 96 well plates and exposed to the test compound for 48 hours. Compounds are tested at a single concentration, which is 10^-5 M for most compounds. The reported endpoint is percent growth (GI% or GIPRCNT), where numbers from 0 - 100% represent growth inhibition, and numbers from -100% - 0 represent cell death. For example, a value of 40 represents 60% growth inhibition. […]
The panel holds about 83,000 compounds, 20% with a hit somewhere; the sample as a whole holds those more often. The source made the active and inactive calls. Rule for the calls: active = growth percent below 10; inactive = the rest.
Just give me one of these, please: 1 (active), 0 (inactive)

Reference set, count: 3
compound=CCN(CC)CCCCNc1c2ccccc2[n+](C)c2c1[nH]c1ccccc12 category_label=0
compound=CC(=O)NCCSC(=O)C(=O)SCCNC(C)=O category_label=0
compound=COc1ccc2nc(NC(=O)c3cc(-c4ccc(F)cc4)n4nc(-c5ccccc5)cc4n3)sc2c1 category_label=0

Give the logged outcome of this assay for the following compound: Cc1c(C(N)=O)sc2c1c(=O)n(Cc1ccccc1)c1nnc(S(=O)(=O)CC(=O)Nc3ccc(Cl)cc3)n21 0

Give the logged outcome of this assay for the following compound: Cc1nn(-c2ccccc2)c2c1oc(=O)c1cc(Cl)ccc12 0

Give the logged outcome of this assay for the following compound: COc1ccc(/C=C(\C#N)c2ccccc2)cc1 0

Give the logged outcome of this assay for the following compound: C/C(=N\N1CC(=O)NC1=O)c1ccc([N+](=O)[O-])o1 0

Give the logged outcome of this assay for the following compound: COc1ccc2c(c1)[nH]c(=O)c1c3cc(OC)c(OC)cc3cn21 1

Give the logged outcome of this assay for the following compound: CCC(C)CC(CC)NCCN1CCN(C(CC)CC(C)CC)C1=S (stereo unspecified) 0

Give the logged outcome of this assay for the following compound: CN1CCCC1c1cccnc1 (stereo unspecified) 0

Give the logged outcome of this assay for the following compound: CCCc1cc(=O)n2c(C(=O)Nc3ccccc3OC)c(C(=O)Nc3ccc(F)cc3)sc2n1 0

###

system: K-562 leukemia; assay: NCI-60 one-dose screen, 48 h; details: 10 µM unless noted
Compounds without any hit were thinned out: in the full panel of roughly 83,000, 20% have a hit. Activity calls are given as the source filed them. The calls were made as follows: active = growth percent below 10; inactive = the rest.
Just give me one of these, please: active, inactive

Reference set, count: 10
compound=C=C(C[C@@](O)(C(=O)Oc1ccccc1)C(=O)C1CCCCC1)c1ccccc1 category_label=inactive
compound=CCCCCCCCSc1ncnc2c1ncn2CO category_label=inactive
compound=Cc1cc(O)c2c(c1)C[C@H]1[C@@H]3CC[C@H]4CC(=O)CC[C@]4(C)[C@H]3CC(=O)[C@]21C category_label=inactive
compound=COc1ccc2c(c1)C(=O)/C(=C/c1ccc([N+](=O)[O-])s1)O2 category_label=active
compound=CCN1C2=C(SC(=S)C1=C1SC(C(=O)OC)=C(C(=O)OC)S1)SC(=Nc1ccc(OC)cc1)C2=O category_label=active
compound=COc1cc(/C=C/c2nnc(-c3cc(-c4ccccc4)n[nH]3)o2)cc(OC)c1OC category_label=inactive
compound=Cc1nnc(Nc2ccc(NC(=O)Nc3ccc(Cl)cc3)cc2)c2ccccc12 category_label=active
compound=CCOc1nc(-c2ccccc2)cc2c(O)c(-c3nnco3)[nH]c(=O)c12 category_label=inactive
compound="Cc1cc2c(C#N)n3c(c2cc1C)C(=O)C(c1ccccc1)Oc1ccccc1-3 (stereo unspecified)" category_label=inactive
compound=O=C(C=C=Nc1ccccc1)C(=O)N=C=Cc1ccccc1 category_label=active

Give the logged outcome of this assay for the following compound: Cc1nn(-c2ccccc2)c2c1oc(=O)c1cc(Cl)ccc12 inactive

Give the logged outcome of this assay for the following compound: COc1ccc2c3c(c(OCCCN(C)C)nc2c1)-c1ccc(Cl)cc1C3=O active

Give the logged outcome of this assay for the following compound: Cc1cc(N2CCOCC2)nc(N2CCOCC2)n1 inactive

Give the logged outcome of this assay for the following compound: O=c1cc(-c2cccnc2)oc2c1ccc1ccccc12 inactive

Give the logged outcome of this assay for the following compound: CCC1=C(c2ccc(OC)cc2)C(C)(C)Oc2cc(O)c(CN3CCCC3)cc21 inactive

###

test system: RPMI-8226 leukemia; assay: NCI-60 one-dose screen, 48 h; conditions: 10 µM unless noted
The panel holds about 83,000 compounds, 20% with a hit somewhere; the sample as a whole holds those more often. Calls of active or inactive are those of the source. The calls were made as follows: active = growth percent below 10; inactive = the rest.
Just give me one of these, please: t = active, f = inactive

molecule=O=[N+]([O-])c1ccc(N/N=C\c2ccccc2[N+](=O)[O-])nc1 category_label=f

Give the logged outcome of this assay for the following compound: CN1CCN(CC(=O)Nc2nc3c(s2)Nc2cc(Cl)c(Cl)cc2NC3=O)CC1 f

Give the logged outcome of this assay for the following compound: CCN(CC)c1ccc(N=Nc2cc(Cl)ccc2Cl)c(NC(=O)CCC(=O)O)c1 f

Give the logged outcome of this assay for the following compound: O=C(/C=C/c1cccnc1)/C=C/c1cccnc1 t

Give the logged outcome of this assay for the following compound: CC/C(=C\c1ccc(N(C)C)cc1)c1nc2ccccc2c(=O)[nH]1 f

Give the logged outcome of this assay for the following compound: O=C(c1ccccc1)c1ccco1 f

###

tested on: RXF 393 renal; assay: NCI-60 one-dose screen, 48 h (100 = growth as untreated, 0 = no growth, -100 = all killed); conditions: 10 µM unless noted
This is part of a sample that, as a whole, favours compounds with a hit. Of some 83,000 tested, about 20% had one in any assay.
# key: entry, value: growth
Answer with a number only, understood to be in %.

Examples from the recorded data:
compound=O=[N+]([O-])c1cnc(Sc2ccncn2)c([N+](=O)[O-])c1 measured_on="RXF 393 renal" assay_result=94.3
compound=COc1ccc(OC)c(NC(=O)c2cc3oc4ccccc4c3cc2O)c1 measured_on="RXF 393 renal" assay_result=143
compound=CCCCN(CCCC)CCCOC(=O)c1ccc(N)cc1 measured_on="RXF 393 renal" assay_result=92.1
compound=COc1cc2c(cc1OCCCCCn1c(-c3ccc(OCc4ccccc4)cc3)nc3cc(N4CCOCC4)ccc31)N=C[C@@H]1CCCN1C2=O measured_on="RXF 393 renal" assay_result=-26.7
compound="O=C1Nc2ccccc2C12Nc1cc(Cl)ccc1S2 (stereo not drawn)" measured_on="RXF 393 renal" assay_result=121

Now look at this entry.
The compound O=c1ccn(C2CCCO2)c(=O)[nH]1 (stereo not drawn) showed growth equal to 111

###

test system: SNB-19 CNS; experiment: NCI-60 one-dose screen, 48 h (100 = growth as untreated, 0 = no growth, -100 = all killed); settings: 10 µM unless noted
This is part of a sample that, as a whole, favours compounds with a hit. Of some 83,000 tested, about 20% had one in any assay.
# key: entry, value: growth
Answer with a number only, understood to be in %.

Examples from the recorded data:
molecule=Cc1ccccc1-c1cc(Cc2ccccc2O)c(=O)[nH]n1 measured_on="SNB-19 CNS" property_label=growth assay_result=123
molecule=COc1ccc2nc3cc(Cl)ccc3c(N3CCN(c4ccnc(Nc5ccc(F)cc5)n4)CC3)c2c1 measured_on="SNB-19 CNS" property_label=growth assay_result=82.4
molecule="CC(=O)Oc1ccc(C2OC(c3ccc4ccccc4c3OC(C)=O)=NN2C(C)=O)c(OC(C)=O)c1 (stereo not given)" measured_on="SNB-19 CNS" property_label=growth assay_result=36.9

The molecule CN(C)c1cccc2c(S(=O)(=O)N[C@H]3CC[C@H]4[C@@H]5CCc6cc(O)ccc6[C@H]5CC[C@]34C)cccc12 showed growth equal to 62.5

The molecule CCCOc1ccc2c(c1)CC[C@@H]1[C@@H]2CC[C@@]2(C)[C@H]1CC[C@]2(C)O showed growth equal to 94.3

###

test system: EKVX NSCLC; test: NCI-60 one-dose screen, 48 h; settings: 10 µM unless noted
Compounds without any hit were thinned out: in the full panel of roughly 83,000, 20% have a hit. Calls of active or inactive are those of the source. How the source made its calls: active means growth percent below 10; inactive means the rest.
Just give me one of these, please: Yes = active, No = inactive

Reference set, count: 2
molecule=CCCCn1c(Cc2ccc(Cl)cc2)nc2cc(OC)c(OC)cc2c1=O measured_on="EKVX NSCLC" category_label=No
molecule=CCCCCCCC/C=C\CCCCCCCCOc1ccccc1CC(=O)NCC[N+]1(C)CCCC1 measured_on="EKVX NSCLC" category_label=No

Give the logged outcome of this assay for the following molecule: Cc1ccc(C(=O)Nc2ccc(Cl)cc2C(=O)NCc2ccccc2)cc1 No

Give the logged outcome of this assay for the following molecule: NC(N)=NC(N)=NCCCc1ccccc1 No

Give the logged outcome of this assay for the following molecule: O=C1c2nsnc2C(=O)c2c(F)c(F)c(F)c(F)c21 Yes
